Please go through the items and note down their IC50.
Test system: SIRPα signalling induced by A549 cells
assay: Assay B: SIRPα signalling assay using A549 cells
Assay type: cell-based
measurement_setup: Homo sapiens, 48 h compound incubation, Jurkat PathHunter SIRPaV1 reporter cells, read-out: Inhibition of SIRPα signalling induced by A549 cells: IC50
Just the number please, in nM, no unit attached.

Lookup: Give IC50 only, for Nc1ncc(C2CCN(c3ncccc3-c3ccc(F)nc3)CC2)s1 [Prior art Compound 1094, reference compound] , using SIRPα signalling induced by A549 cells data.
Found: 3060

Lookup: Write IC50 of COc1ccc(C#N)c(N2CCC(c3nncn3C)CC2)c1-c1ccc(F)nc1 [Example 8] ; system used: SIRPα signalling induced by A549 cells
Found: 11

Lookup: Answer with IC50 of Cn1cnnc1C1(F)CCN(c2c(C#N)cc(F)cc2-c2ccc(F)nc2)CC1 [Example 6] measured for SIRPα signalling induced by A549 cells.
Found: 16

Lookup: Retrieve IC50 on SIRPα signalling induced by A549 cells; query Cn1cnnc1C1CCN(c2c(C#N)cc(C#N)cc2-c2ccc(F)nc2)CC1 [Example 21]
Found: 280

Lookup: // fetch IC50; item: Cn1cnnc1C1CCN(c2c(C#N)ccc(OCC3CC3)c2-c2ccc(F)nc2)CC1 [Example 11] ; system: SIRPα signalling induced by A549 cells
Found: 43

Lookup: Using SIRPα signalling induced by A549 cells as the test system, report measured IC50 of Cn1cnnc1C1CCN(c2c(C#N)ccc(OC(F)F)c2-c2ccc(F)nc2)CC1 [Example 13] .
Found: 27

Lookup: State the measured IC50 (SIRPα signalling induced by A549 cells) of Cn1cnnc1C1(F)CCN(c2c(C#N)cc(C(F)(F)F)cc2-c2cnc3nn(C(C)(C)C)cc3c2)CC1 [Example 1]
Found: 11

Lookup: Provide IC50, tested on SIRPα signalling induced by A549 cells, for Cn1cnnc1C1CCN(c2c(-c3cnc4nn(C(C)(C)C)cc4c3)ccc(C(F)(F)F)c2C#N)CC1 [Example 32] .
Found: 36

Lookup: Fill in: IC50 on SIRPα signalling induced by A549 cells, entry COc1ccc(-c2cnc3nn(C(C)(C)C)cc3c2)c(N2CCC(F)(c3nncn3C)CC2)c1C#N [Example 33]
Found: 11

Lookup: // fetch IC50; item: Cn1cnnc1C1(F)CCN(c2c(C#N)cc(C(F)(F)F)cc2-c2cnc3nc(C(C)(C)C)nn3c2)CC1 [Example 2] ; system: SIRPα signalling induced by A549 cells
Found: 7

Lookup: Quote IC50 with test system SIRPα signalling induced by A549 cells for Cn1cnnc1C1(F)CCN(c2c(C#N)cc(C(F)(F)F)cc2-c2cnc3nc(C(F)(F)F)cn3c2)CC1 [Example 22]
Found: 39

Lookup: Output reported IC50 of the compound Cn1cnnc1C1CCN(c2c(C#N)cc(F)cc2-c2ccc(F)nc2)CC1 [Example 7] on SIRPα signalling induced by A549 cells.
Found: 18

Lookup: Return reported IC50 for target or system SIRPα signalling induced by A549 cells, item Cn1cnnc1C1CCN(c2c(C#N)ccc(OCc3ccccc3)c2-c2ccc(F)nc2)CC1 [Example 12] .
Found: 14

Lookup: Give SIRPα signalling induced by A549 cells IC50 for the following compound: Cn1cnnc1C1(F)CCN(c2c(C#N)cc(Cl)cc2-c2ccc(F)nc2)CC1 [Example 18]
Found: 24

Lookup: Write down measured IC50 (SIRPα signalling induced by A549 cells) for this compound. Cn1cnnc1C1(F)CCN(c2c(C#N)cc(F)cc2-c2cnc3nn(C(C)(C)C)c(Cl)c3c2)CC1 [Example 24]
Found: 13

Lookup: Tell me IC50 of COc1ccc(-c2ccc(F)nc2)c(N2CCC(c3nncn3C)CC2)c1C#N [Example 20] when tested on SIRPα signalling induced by A549 cells.
Found: 24

Data origin: patent US20240317712A1
